meta.source: paper PMC3206016

Biological target: T1, MAGI1-3/6 (MBP fusion of the third of the six PDZ domains of MAGI1) (mouse, UniProt Q6RHR9-1 613-752)
T1 construct: source: E. coli BL21 DE3, purified (amylose column, Superdex 75 gel filtration)
T1 sequence (Q6RHR9 613-752): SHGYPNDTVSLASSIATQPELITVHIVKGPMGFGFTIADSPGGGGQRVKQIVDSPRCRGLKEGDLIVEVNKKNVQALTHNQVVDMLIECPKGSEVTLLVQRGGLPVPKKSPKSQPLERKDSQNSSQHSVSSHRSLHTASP
Experiment: SPR
Conditions: both partners purified
Ends that are not written are not given here. * marks the point of attachment. Biotin = O=C1N[C@H]2[C@H](CS[C@H]2CCCCC(=O)*)N1
Reported Kd values for a set of binders
Your answer should be a plain number; it is taken to be in µM.

Some solved cases for reference:
BINDER	VALUE_MEASURED
Biotin-GSGAGIESNV (also called TANC1 short; source: synthetic peptide (JPT Peptide Technologies))	14
Biotin-SEKHFRETEV (also called TAX1 long; HTLV1 Tax1; source: synthetic peptide (JPT Peptide Technologies))	1230
Biotin-EDQHTQITKV (also called PTEN long; source: synthetic peptide (JPT Peptide Technologies)) [PTEN_10 (long peptide of PTEN: the last ten residues)]	144

// query Returns the measured Kd for the input binder. Input: Biotin-GSGAGQITKV (also called PTEN short; source: synthetic peptide (JPT Peptide Technologies)) [PTEN_05 (short peptide of PTEN: GSGAG and the last five residues)]
// result 453
